- measurementNotes: Inhibition of quorum sensing system in Pseudomonas aeruginosa PAO1 assessed as decrease in pqsR expression at 15 uM incubated for 12 hrs by real-time fluorescent quantitative PCR analysis
recordedMetric: inhibition (%)

Consider the reported inhibition for these molecules:
| entrySmiles | inhibition, % |
| --- | --- |
| O=C(CCSc1ccc(Cl)cc1)N[C@H]1CCOC1=O | 53.5 |
| COc1ccccc1NC(=O)NC(=O)CSC(=S)N[C@H]1CCOC1=O | 57.5 |
| CC1=C(Br)/C(=C(\C)Br)OC1=O | 45 |

1: O=C(CSC(=S)N[C@H]1CCOC1=O)NC(=O)Nc1cccc2ccccc12
2: Cc1cccc(NC(=O)NC(=O)CSC(=S)N[C@H]2CCOC2=O)c1
Hey, which is lower on measured inhibition, 1 or 2 ? Lab log: write the label of the selected item as the result. 1

----------
- measurementNotes: Inhibition of quorum sensing system in Pseudomonas aeruginosa PAO1 assessed as decrease in lasI expression at 15 uM incubated for 12 hrs by real-time fluorescent quantitative PCR analysis
recordedMetric: inhibition (%)

Consider the reported inhibition for these compounds:
| entrySmiles | inhibition, % |
| --- | --- |
| O=C(CCSc1nc2ccccc2s1)N[C@H]1CCOC1=O | 32.9 |
| COc1ccccc1NC(=O)NC(=O)CSC(=S)N[C@H]1CCOC1=O | 39.2 |
| O=C(CSC(=S)N[C@H]1CCOC1=O)NC(=O)Nc1cccc2ccccc12 | 38.9 |

1: CC1=C(Br)/C(=C(\C)Br)OC1=O
2: O=C(CSc1nc2ccccc2s1)N[C@H]1CCOC1=O
Lab note: record which item had the higher inhibition, 1 or 2 . Lab log: write the label of the selected item as the result. 2
(2: 50.5%, 1: 26.9%)

----------
- measurementNotes: Inhibition of quorum sensing system in Pseudomonas aeruginosa PA14 assessed as inhibition of pyocyanin production by UV-vis spectrophotometric assay
recordedMetric: IC50 (µM)

| entrySmiles | unitName | IC50 |
| --- | --- | --- |
| Clc1ccc2c(NCCCCCCCCNCc3cc4ccccc4s3)ccnc2c1 | µM | 25 |

A: NCCCCCCCCCCCCNc1ccnc2cc(Cl)ccc12
B: Clc1ccc2c(NCCCCCCCCNCc3cc4ccccc4o3)ccnc2c1
Lab note: record which item had the higher IC50, A or B . Lab log: write the label of the selected item as the result. B

----------
- Tested on: Pseudomonas aeruginosa
- measurementNotes: Inhibition of quorum sensing system in Pseudomonas aeruginosa MH602 expressing PlasB::gfp assessed as inhibition of GFP fluorescence expression at 250 uM incubated for 15 hrs by fluorescence microplate reader analysis
recordedMetric: inhibition (%)

Consider the reported inhibition for these compounds:
| entrySmiles | subjectOfTest | recordedMetric | unitName | recordedValue |
| --- | --- | --- | --- | --- |
| O=C1C(Cl)=C(Cl)CN1CCc1ccc(O)cc1 | Pseudomonas aeruginosa | inhibition | % | 74 |
| CCCCCCNC(=O)c1ccc(N2CC(Cl)=C(Cl)C2=O)cc1 | Pseudomonas aeruginosa | inhibition | % | 30 |
| CCCCNC(=O)c1ccc(N2CC(Cl)=C(Cl)C2=O)cc1 | Pseudomonas aeruginosa | inhibition | % | 30 |
| O=C1C(Br)=C(Br)CN1c1ccccc1 | Pseudomonas aeruginosa | inhibition | % | 80.7 |
| O=C1C(Cl)=C(Cl)CN1c1cccc(O)c1 | Pseudomonas aeruginosa | inhibition | % | 78 |
| Nc1cccc(N2CC(Cl)=C(Cl)C2=O)c1 | Pseudomonas aeruginosa | inhibition | % | 80.4 |

1: CCCCCCN1CC(Cl)=C(Cl)C1=O
2: O=C(NCc1ccccc1)c1ccc(N2CC(Cl)=C(Cl)C2=O)cc1
Hey, which is lower on measured inhibition, 1 or 2 ? Lab log: write the label of the selected item as the result. 2
(2: 30%, 1: 68%)

----------
- measurementNotes: Inhibition of quorum sensing system in Pseudomonas aeruginosa PAO1 assessed as inhibition of elastase production at 15 uM incubated for 12 hrs by Congo red dye based spectrophotometric assay
recordedMetric: inhibition (%)

| entrySmiles | inhibition / % |
| --- | --- |
| O=C(CSC(=S)N[C@H]1CCOC1=O)NC(=O)Nc1cccc2ccccc12 | 14.3 |
| COc1ccccc1NC(=O)NC(=O)CSC(=S)N[C@H]1CCOC1=O | 18.4 |
| Cc1cccc(NC(=O)NC(=O)CSC(=S)N[C@H]2CCOC2=O)c1 | 13.7 |
| CC1=C(Br)/C(=C(\C)Br)OC1=O | 16.5 |

----------
- subjectOfTest: Transcriptional activator protein LasR (Pseudomonas aeruginosa (strain ATCC 15692 / PAO1 / 1C / PRS 101 / LMG12228))
- Sequence (P25084 whole entry): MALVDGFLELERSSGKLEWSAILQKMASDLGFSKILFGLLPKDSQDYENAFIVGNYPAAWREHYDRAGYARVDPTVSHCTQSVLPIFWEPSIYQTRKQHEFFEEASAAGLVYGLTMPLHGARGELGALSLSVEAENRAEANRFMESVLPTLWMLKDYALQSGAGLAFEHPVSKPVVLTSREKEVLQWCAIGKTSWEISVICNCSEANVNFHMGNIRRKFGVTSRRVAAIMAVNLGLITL
- measurementNotes: Antagonist activity against LasR-mediated quorum sensing system in Pseudomonas aeruginosa PAO1 by spectrophotometric assay
recordedMetric: IC50 (µM)

| entrySmiles | unitName | IC50 |
| --- | --- | --- |
| COc1cccc(/C=C/C(=O)c2ccc(NCC(=O)N[C@H]3CCOC3=O)cc2)c1 | µM | 56.5 |

a: O=C(CNc1ccc(C(=O)/C=C/c2ccc(Cl)cc2)cc1)N[C@H]1CCOC1=O
b: O=C(CNc1ccc(C(=O)/C=C/c2ccccc2Cl)cc1)N[C@H]1CCOC1=O
Lab note: record which item had the higher IC50, a or b . Lab log: write the label of the selected item as the result. b

----------
- Tested on: Pseudomonas aeruginosa
- measurementNotes: Inhibition of quorum sensing system in Pseudomonas aeruginosa MH602 PlasB-gfp(ASV) assessed as inhibition of green fluorescent protein production at 250 uM for 20 hrs by fluorescence assay
recordedMetric: inhibition (%)

A: CCCCCc1cn(CC(=O)Nc2nc3ccccc3[nH]2)nn1
B: O=C(Cn1cc(-c2ccc(Cl)cc2)nn1)Nc1nc2ccccc2[nH]1
Hey, which is lower on measured inhibition, A or B ? Lab log: write the label of the selected item as the result. A
(A: 42%, B: 65%)

1: CCCc1cn(CC(=O)Nc2nc3ccccc3[nH]2)nn1
2: COc1ccc(-c2cn(CC(=O)Nc3nc4ccccc4[nH]3)nn2)cc1
Lab note: record which item had the higher inhibition, 1 or 2 . Lab log: write the label of the selected item as the result. 1

----------
- measurementNotes: Antagonist activity against quorum sensing system in Pseudomonas aeruginosa PAO1 transfected with rhlA-lacZ reporter gene assessed as inhibition of beta-galactosidase activity incubated for 24 hrs by elastin-Congo red assay
recordedMetric: IC50 (µM)
Provide the reading as a plain figure in µM.

Output IC50 of CCCCCCCCCC(=O)NC1CCCC1 [N-CYCLOPENTYLDECANAMIDE] 90

----------
- measurementNotes: Inhibition of quorum sensing system in Pseudomonas aeruginosa PAO1 assessed as inhibition of rhamnolipid production at 15 uM incubated for 12 hrs by spectrophotometric assay
recordedMetric: inhibition (%)

Consider the reported inhibition for these molecules:
| entrySmiles | recordedMetric | recordedValue |
| --- | --- | --- |
| O=C(CCSc1ccc(Cl)cc1)N[C@H]1CCOC1=O | inhibition | 17.6 |
| O=C(CCSc1nc2ccccc2s1)N[C@H]1CCOC1=O | inhibition | 22.2 |
| Cc1cccc(NC(=O)NC(=O)CSC(=S)N[C@H]2CCOC2=O)c1 | inhibition | 28.1 |
| O=C(CSC(=S)N[C@H]1CCOC1=O)NC(=O)Nc1cccc2ccccc12 | inhibition | 20.8 |
| O=C(CSc1nc2ccccc2s1)N[C@H]1CCOC1=O | inhibition | 20.5 |

A: CC1=C(Br)/C(=C(\C)Br)OC1=O
B: COc1ccccc1NC(=O)NC(=O)CSC(=S)N[C@H]1CCOC1=O
Hey, which is lower on measured inhibition, A or B ? Lab log: write the label of the selected item as the result. B

----------
- Test system: Pseudomonas aeruginosa
- measurementNotes: Inhibition of quorum sensing system in Pseudomonas aeruginosa MH602 expressing PlasB::gfp assessed as inhibition of GFP fluorescence expression at 250 uM incubated for 15 hrs by fluorescence microplate reader analysis
recordedMetric: inhibition (%)

| entrySmiles | recordedValue |
| --- | --- |
| CCCCN1CC(Cl)=C(Cl)C1=O | 71.4 |
| O=C1C(Cl)=C(Cl)CN1c1ccccc1 | 81.7 |
| C=CCN1CC(Cl)=C(Cl)C1=O | 76.4 |

Reference source for all entries: ChEMBL document CHEMBL5230154
